- Study Target: T1, dPPR10 (synthetic construct (designed consensus …))
- T1 chain: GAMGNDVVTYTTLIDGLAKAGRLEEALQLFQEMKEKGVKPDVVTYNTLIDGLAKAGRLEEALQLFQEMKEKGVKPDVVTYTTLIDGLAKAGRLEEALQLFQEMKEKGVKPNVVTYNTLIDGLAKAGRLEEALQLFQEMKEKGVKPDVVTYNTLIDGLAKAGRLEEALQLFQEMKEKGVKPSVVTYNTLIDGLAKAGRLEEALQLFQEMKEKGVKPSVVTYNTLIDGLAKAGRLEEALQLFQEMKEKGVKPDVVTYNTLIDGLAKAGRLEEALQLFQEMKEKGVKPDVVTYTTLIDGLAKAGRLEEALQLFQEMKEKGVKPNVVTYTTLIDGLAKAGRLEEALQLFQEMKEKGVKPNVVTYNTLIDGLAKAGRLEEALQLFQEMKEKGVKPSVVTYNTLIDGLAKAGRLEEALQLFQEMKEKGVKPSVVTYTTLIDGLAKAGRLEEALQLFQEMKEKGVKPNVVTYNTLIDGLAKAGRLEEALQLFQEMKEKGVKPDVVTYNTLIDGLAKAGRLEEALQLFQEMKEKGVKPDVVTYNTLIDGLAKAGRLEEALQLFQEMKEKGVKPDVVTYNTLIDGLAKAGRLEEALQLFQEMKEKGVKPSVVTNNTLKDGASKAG
- Experimental Details: MST; Results value; Fig S4D legend gives 9.7 nM; SPR: 30 mM Tris pH 7.6, 40 mM KCl, 5 mM MgCl2, 0.5 mM DTT, 0.25 mM EDTA, 0.01% P20, 20 C; ensemble FRET and MST: 100 mM Tris-HCl pH 8.0, 100 mM KCl; smFRET buffer not in material
- Condition Parameters: protein: recombinant; tags: Trx-His6-TEV (pETM20) cleaved; GAM remnant; label: 5' 6-FAM (FITC in Results)
Reported Endpoint: pKd
Friendly reminder that pKd comes from taking -log10 of the concentration in mol/L.

Enquiry: I am curious: what pKd value has been reported for UGUAUCCUUAACCAUUUCU (ssRNA) [RNAcognate 5'-FAM] ?
Return: 8.40
